Let's look at some pIC50 data for DGKζ (Homo sapiens) that I collected from the literature.
Lab note — pIC50 values are minus log10 of concentrations in M.

Past entries and their recorded results:
CC(C)(C#N)c1nnc(-c2cc3c(cc2F)C(F)(F)C[C@@H](N)C(=O)N3Cc2ccc(-n3cc(C(F)(F)F)cn3)c(F)c2)o1 (single isomer, unassigned) | 5.52
CC[C@H]1CN(C(C)c2ccc(COC3COC3)cc2)[C@H](CC)CN1c1cc(=O)n(C)c2cn(CC#N)nc12 (stereo partly shown) | 6.77
CC[C@H]1CN(C(C)c2ccn3nc(F)c(F)c3n2)[C@H](CC)CN1c1nc(=O)n(C)c2cc(CC#N)nn12 (stereo partly shown) | 7.40

Value sought: pIC50, system DGKζ (Homo sapiens), item CC[C@H]1CN(C(C)c2ccc(COC)cn2)[C@H](CC)CN1c1cc(=O)n(C)c2cn(CC#N)nc12 (stereo partly shown) . Result: 6.53

Entry Cc1cc2nc(C(C)N3C[C@H](C)N(c4cc(=O)n(C)c5cn(CC#N)nc45)C[C@H]3C)ccc2s1 (stereo partly shown) , DGKζ (Homo sapiens) data, pIC50 value: 7.13

---

Record: compiled IC50 on DGKζ (Homo sapiens) from multiple reports.
// units = nM; emit number, no label

Guide cases for IC50, answers given:
CC[C@H]1CN([C@H](C)c2ccc(S(F)(F)(F)(F)F)cc2)[C@H](CC)CN1c1nc2nncn2c2ccc(C#N)nc12 (stereo in doubt) | 116
CC(C)(C#N)c1nnc(-c2cc3c(cc2F)C(F)(F)C[C@@H](N)C(=O)N3Cc2ccc(-c3ccc(C(F)(F)F)cc3)nc2)o1 (single isomer, unassigned) | 11200
CC[C@H]1CN(C(C)c2ccc(OC3COC3)cc2F)[C@H](CC)CN1c1cc(=O)n(C)c2cn(CC#N)nc12 (stereo partly drawn) | 465

Switching to the query record.
Entry CC[C@H]1CN(C(C)c2ccncc2)[C@H](CC)CN1c1cc(=O)n(C)n2cc(CC#N)nc12 (stereo partly drawn) ; assay system DGKζ (Homo sapiens); IC50 recorded at 7900

---

Multiple publications report IC50 for UniProt Q13574; what follows is a combined list.
Use nM as the unit, but write only the number.

Examples with their reported IC50 follow.
CC[C@@H]1CN(c2nc3nncn3c3ccc(C#N)nc23)[C@@H](C)CN1[C@@H](CC)c1ccc(C(F)(F)F)cc1 (stereo in doubt) | 16
CC[C@H]1CN(C(C)c2ccc(C3CC3)nc2)[C@H](CC)CN1c1cc(=O)n(C)c2cn(C3COC3)nc12 (stereo partly drawn) | 1470
CC[C@@H]1CN(c2cc(=O)[nH]c3cc(CC#N)nn23)[C@@H](C)CN1C(C)c1ccc2nccnc2c1 (single isomer, unassigned) | 7390
CC[C@H]1CN([C@@H](CC)c2ccc(C(F)(F)F)nc2)[C@H](CC)CN1c1nc2nncn2c2ccc(C#N)nc12 (stereo in doubt) | 18
CC[C@@H]1CN(c2nc(=O)n(C)c3ccc(C#N)nc23)[C@@H](C)CN1[C@H](CC)c1ccc(S(F)(F)(F)(F)F)cc1 (stereo in doubt) | 180
CC[C@H]1CN([C@H](C)c2ccc(SC(F)(F)F)cc2)[C@H](CC)CN1c1nc2nncn2c2ccc(C#N)nc12 (stereo in doubt) | 499
CC[C@H]1CN(C(C)c2ccc3c(c2)OC(F)(F)O3)[C@H](CC)CN1c1cc(=O)n(C)c2cn(CC#N)nc12 (stereo partly drawn) | 252
CC[C@@H]1CN(c2nc3nncn3c3ccc(C#N)nc23)[C@@H](C)CN1[C@H](CC)c1ccc(SC(F)(F)F)cc1 (stereo in doubt) | 236

Reading of IC50 for CC[C@H]1CN([C@H](CC)c2ccc(S(F)(F)(F)(F)F)cc2)[C@H](CC)CN1c1nc2nncn2c2ccc(C#N)nc12 with UniProt Q13574: 93

---

Compiled from multiple publications: IC50 readings for DGKζ (Homo sapiens, UniProt Q13574).

# count of solved cases: 8
CC[C@H]1CN(C(C)c2cc(F)c(C(=O)N(C)C)c(F)c2)[C@H](CC)CN1c1cc(=O)n(C)c2cn(CC#N)nc12 (single isomer, unassigned) | 551 nM
CC[C@H]1CN([C@H](CC)c2ccc(OC)cc2F)[C@H](CC)CN1c1nc2nncn2c2ccc(C#N)nc12 (stereo in doubt) | 347 nM
CC[C@H]1CN(C(C)c2ccc(OC3CC3)cc2)[C@H](CC)CN1c1cc(=O)n(C)c2cn(CC#N)nc12 (stereo partly shown) | 244 nM
CC[C@H]1C[C@]2(CCN1c1nc(=O)n(C)c3ccc(C#N)nc13)CC(c1ccc(OC(F)(F)F)cc1)=NO2 (stereo in doubt) | > 1000 nM
CC(C)(c1nnc(-c2cc3c(cc2F)C(F)(F)C[C@@H](N)C(=O)N3Cc2ccc(-c3ccc(C(F)(F)F)cn3)cc2)o1)S(C)(=O)=O (single isomer, unassigned) | 16100 nM
N#Cc1cc2c3c(n1)c(N1CCC4(CC1)CC(c1ccc(OC(F)(F)F)cc1)=NO4)nc(=O)n3CCO2 | 162 nM
CC[C@H]1CN(C(C)c2ccn3ncc(F)c3n2)[C@H](CC)CN1c1nc(=O)n(C)c2cc(CC#N)nn12 (stereo partly shown) | 38 nM
CC[C@H]1C[C@@H](c2nc3cc(C)ccc3o2)CCN1c1nc(=O)n(C)c2cc(O[C@H]3CCOC3)c(Cl)cc12 (stereo in doubt) | 130 nM

CN(c1cccc(C#CC2CC2)c1)c1nc(=O)n(C)c2ccc(C#N)nc12 yielded IC50 of 324 nM

Please fill in: IC50 reported for CC[C@H]1CN(C(C)c2ccc3c(c2)CCC3(C)C)[C@H](CC)CN1c1cc(=O)n(C)c2cn(CC#N)nc12 (stereo partly shown) = 96 nM

Entry Cc1ccc2oc(C3CCN(c4nc(=O)n(C)c5cc(O[C@H]6CCOC6)c(Cl)cc45)CC3)nc2c1 , IC50 reported as < 100 nM

compound CC[C@H]1CN(C(C)c2ccc(OC)cn2)[C@H](CC)CN1c1cc(=O)n(C)c2cn(CC#N)nc12 (stereo partly shown) , IC50 observed: 536 nM

Record Cc1nc2c(N3C[C@@H](C)N(C(c4ccc(Cl)cc4)c4ccc(Cl)cc4)C[C@@H]3C)nc3nncn3c2n1C[C@@H]1CCCO1 . Reported IC50: ≤ 20 nM

---

pIC50: −log10 of the molar value.
For reference, the following pIC50 results for DGKζ (Homo sapiens) were taken from various sources.
Think of 7 as a floor: if pIC50 stands on it or above, it is YES; beneath it, NO.

Illustrative cases are given below, each with its answer.
CC(c1ccc2nccnc2c1)N1C[C@H](C)N(c2cc(=O)n(C)c3cc(CC#N)nn23)C[C@H]1C (single isomer, unassigned) | YES
CC[C@H]1CN(C(C)c2cc3scnc3cn2)[C@H](CC)CN1c1cc(=O)n(C)c2cn(CC#N)nc12 (stereo partly shown) | NO
CC(C)(C)c1cncc(-c2cc3c(cc2F)C(F)(F)C[C@@H](N)C(=O)N3Cc2ccc(Cl)cc2)c1 (single isomer, unassigned) | NO

Query: Exam item: decide whether the reported pIC50 for Cc1nc2c(N3C[C@@H](C)N(C(c4ccc(F)c(Cl)c4)C4CC(F)(F)C4)C[C@@H]3C)nc3nncn3c2n1C[C@@H]1CCCO1 (single isomer, unassigned) is at least 7.
Reply: YES

Query: Threshold query (pIC50 >= 7) on CC[C@@H]1CN(c2cc(=O)n(C)c3cn(CC#N)nc23)[C@@H](C)CN1C(C)c1ccc2cc(C)sc2n1 (stereo partly shown)
Reply: YES

Query: Identify whether the reported pIC50 of the following compound is 7 or greater: CC(c1ccc2c(c1)OCCO2)N1C[C@H](C)N(c2cc(=O)n(C)c3cc(CC#N)nn23)C[C@H]1C (stereo partly shown)
Reply: YES

Query: Kindly determine if pIC50 recorded for CC(C)(C#N)c1nnc(-c2cc3c(cc2F)C(F)(F)C[C@@H](N)C(=O)N3Cc2ccc(-n3ccc(C(F)(F)F)n3)cc2)o1 (single isomer, unassigned) is above or exactly 7.
Reply: NO

Query: Assess whether reported pIC50 for CC[C@H]1CN(C(C)c2ccc(C(=O)N3CC(OC)C3)cc2)[C@H](CC)CN1c1cc(=O)n(C)c2cn(CC#N)nc12 (single isomer, unassigned) sits at 7 or higher.
Reply: NO

Query: Hi team, for CC[C@H]1CN(C(C)c2ncc(C)cc2C)[C@H](CC)CN1c1cc(=O)n(C)c2cn(CC#N)nc12 (stereo partly shown) , is the recorded pIC50 at or above 7?
Reply: NO

Query: Item CC[C@H]1CN(C(C)c2ccn3nc(C)cc3c2)[C@H](CC)CN1c1nc(=O)n(C)c2cc(CC#N)nn12 (stereo partly shown) with pIC50 of 7 or above?
Reply: YES
